tested target: LAP2, Q96RT1
Sequence (Q96RT1 other isoform, or with tags, fused parts or gaps): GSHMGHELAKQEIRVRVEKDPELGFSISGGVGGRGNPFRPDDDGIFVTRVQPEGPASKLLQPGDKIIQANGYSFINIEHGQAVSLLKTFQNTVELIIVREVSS
protocol notes: holdup assay
Parameters: key: below the threshold = too weak to quantify, mostly under pKd 3.1 to 4
conditions: plain residues with an end cap or a label only (N-terminal biotin on a linker: ttds)
assay endpoint: pKd

[[record]]
binder = "QRPYRRESEI [KCNJ12, Q14500]"
result = "below the threshold"

[[record]]
binder = "SGGKRKETLV [NET1, Q7Z628]"
result = "below the threshold"

[[record]]
binder = "DLDEEEDTHL [PODXL, O00592]"
result = "below the threshold"

